ASSAY PROCEDURE: self-splicing fitness, log relative to wild type (ln ratio); higher = more splicing; Tetrahymena group I intron in knt gene, E. coli kanamycin selection, DiMSum; sequences stand for … in CUCUCU…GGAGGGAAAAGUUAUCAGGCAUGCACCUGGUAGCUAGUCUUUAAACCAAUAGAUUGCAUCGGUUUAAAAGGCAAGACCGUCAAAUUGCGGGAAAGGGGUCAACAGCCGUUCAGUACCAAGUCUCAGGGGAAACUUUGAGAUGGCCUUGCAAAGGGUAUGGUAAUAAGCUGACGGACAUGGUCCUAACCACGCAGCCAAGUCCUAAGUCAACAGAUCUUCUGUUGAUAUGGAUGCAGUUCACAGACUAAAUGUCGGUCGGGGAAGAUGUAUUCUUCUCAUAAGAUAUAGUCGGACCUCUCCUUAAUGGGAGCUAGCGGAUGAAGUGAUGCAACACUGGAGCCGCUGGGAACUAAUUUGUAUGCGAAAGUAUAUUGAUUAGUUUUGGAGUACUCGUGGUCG;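 further: selection with 25 µg/mL kanamycin versus none on LB agar overnight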
PARTICULARS: 30 °C
MEASUREMENT NAME: self-splicing fitness (ln)
Form: value (number only, do not type unit).

Here's what some known entries look like.
{"columns": ["SEQUENCE CODE", "self-splicing fitness (ln)"],
 "data": [
  ["CUCCAGCAAUAUUACGAGUU", -2.87],
  ["CCUAAGCAAUAUUACGUGAG", -1.2],
  ["GCUAAGCAAUAUUACGACUU", -0.326],
  ["GUCGAGCAAUAUUACGAUAC", -0.265],
  ["AUACAGCAAUAUUACGUGCC", -1.16],
  ["GUCGAGCAAUAUUACGGUUC", -2.27]
]}

Give the reported self-splicing fitness (ln) for this sequence. UUUUAGCAAUAUUACGAAAA
-1.13

Give the reported self-splicing fitness (ln) for this sequence. AACUAGCAAUAUUACGUCGU
-1.8

Give the reported self-splicing fitness (ln) for this sequence. UUGAAGCAAUAUUACGAGUC
-3.73

Give the reported self-splicing fitness (ln) for this sequence. UUGCAGCAAUAUUACGGCAG
-0.754

Give the reported self-splicing fitness (ln) for this sequence. UCUGAGCAAUAUUACGCAUA
-2.73

Give the reported self-splicing fitness (ln) for this sequence. UCAAAGCAAUAUUACGCCAG
-1.35

Give the reported self-splicing fitness (ln) for this sequence. GAUAAGCAAUAUUACGGGGC
-2.96

Give the reported self-splicing fitness (ln) for this sequence. CACCAGCAAUAUUACGCUAG
-1.49

Give the reported self-splicing fitness (ln) for this sequence. GGAUAGCAAUAUUACGGUUG
-3.53

###

ASSAY PROCEDURE: self-splicing fitness, log relative to wild type (ln ratio); higher = more splicing; Tetrahymena group I intron in knt gene, E. coli kanamycin selection, DiMSum; sequences stand for … in CUCUCU…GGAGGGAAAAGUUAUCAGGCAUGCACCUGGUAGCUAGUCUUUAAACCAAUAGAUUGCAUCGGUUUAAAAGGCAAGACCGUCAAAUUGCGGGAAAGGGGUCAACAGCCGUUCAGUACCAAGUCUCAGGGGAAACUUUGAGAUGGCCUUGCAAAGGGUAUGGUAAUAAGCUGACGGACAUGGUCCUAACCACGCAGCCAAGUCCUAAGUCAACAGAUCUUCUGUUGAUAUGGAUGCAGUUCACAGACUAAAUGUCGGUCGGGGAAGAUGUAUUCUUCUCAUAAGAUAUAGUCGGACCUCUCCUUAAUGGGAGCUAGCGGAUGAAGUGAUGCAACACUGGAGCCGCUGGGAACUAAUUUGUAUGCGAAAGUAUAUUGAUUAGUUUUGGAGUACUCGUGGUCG
PARTICULARS: 30 °C
Label T for high-side self-splicing fitness (ln) (at or above -2) and F for low-side self-splicing fitness (ln) (below it).

Look over these answered cases.
{"columns": ["SEQUENCE CODE", "CLASSIFICATION"],
 "data": [
  ["CGCAAGCAAUAUUACGAGCU", "T"],
  ["CGACAGCAAUAUUACGUCUG", "T"],
  ["CCGUAGCAAUAUUACGAAUA", "F"],
  ["CACCAGCAAUAUUACGGUGC", "F"],
  ["CAGGAGCAAUAUUACGUUCA", "F"],
  ["UAGCAGCAAUAUUACGUUUA", "T"],
  ["UAACAGCAAUAUUACGCGAG", "T"],
  ["GUACAGCAAUAUUACGGCAC", "T"],
  ["GGCGAGCAAUAUUACGCCGU", "F"],
  ["CUGUAGCAAUAUUACGCUGU", "F"]
]}

Reported self-splicing fitness (ln) at or above -2? UACAAGCAAUAUUACGAUUU
T

Reported self-splicing fitness (ln) at or above -2? UUGAAGCAAUAUUACGCAAG
T
